test system: MCF7; test: HRG-induced Akt activation (dPAkt = log2 pAkt/Akt HRG-stimulated minus log2 pAkt/Akt basal) (log2 ratio difference); higher = stronger HRG-induced Akt(T308) phosphorylation; conditions: miRNA mimic concentration 10 nM; time after transfection 72 h; heregulin 10 ng/ml; stimulation time 1 h
Recorded HRG-induced Akt activation (log2), one value per entry.
Reply with just the number.

Below are worked cases with known answers.
>>> test_value("UAGGUAGUUUCAUGUUGUUGGG")
1.86
>>> test_value("ACUGAUUUCUUUUGGUGUUCAG")
1.47
>>> test_value("UUAUAAAGCAAUGAGACUGAUU")
1.5

HRG-induced Akt activation (log2) measured on `AUGGAUAAGGCUUUGGCUU` = 1.72

Entry `UCUUGUGUUCUCUAGAUCAGU` , HRG-induced Akt activation (log2) reported as 1.53

So, `AAAAGUAAUUGUGGUUUUGGCC` ? Its HRG-induced Akt activation (log2) was 1.15

Entry `UCGGCCUGACCACCCACCCCAC` , HRG-induced Akt activation (log2) reported as 0.936

Quick note, HRG-induced Akt activation (log2) for `AGGGUAAGCUGAACCUCUGAU` landed at 1.51

Record `AGACCCUGGUCUGCACUCUAUC` . Reported HRG-induced Akt activation (log2): 1.82
